Data origin, for the record: patent US20130225488A1

Each entry below carries its reported cAMP release, % activity with respect to control; test compound 1 nM.
molecular target: Human GLP-1 receptor (human, UniProt P43220 24-463); test: cell-based or functional assay
Sequence (P43220 24-463): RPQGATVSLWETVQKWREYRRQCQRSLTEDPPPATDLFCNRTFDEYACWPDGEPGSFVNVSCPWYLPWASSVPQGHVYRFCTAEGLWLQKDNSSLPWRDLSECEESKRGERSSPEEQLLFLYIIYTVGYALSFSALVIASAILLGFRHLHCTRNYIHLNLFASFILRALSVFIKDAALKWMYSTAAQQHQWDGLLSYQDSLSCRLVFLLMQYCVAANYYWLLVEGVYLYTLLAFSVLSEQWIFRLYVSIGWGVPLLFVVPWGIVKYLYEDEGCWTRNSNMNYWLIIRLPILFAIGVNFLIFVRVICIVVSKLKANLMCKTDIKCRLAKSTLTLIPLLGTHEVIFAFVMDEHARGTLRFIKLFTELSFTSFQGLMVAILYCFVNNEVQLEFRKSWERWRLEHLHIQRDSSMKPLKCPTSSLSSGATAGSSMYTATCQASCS
Where no end group is shown, it is not given here. [ ]: non-standard residue; d: D form. αMePhe(2-F) = C[C@](N)(Cc1ccccc1F)C(=O)O; Aib = CC(C)(N)C(=O)O
# include the unit after the value

1) HSQGTFTSD[Bip(OMe)][Bip(2F)] (not fully specified (C-terminus); printed as HSQGTFTSD-Bip(OMe)-Bip(2F)) [Seq. ID. No. 7: HSQGTFTSD-Bip(OMe)-Bip(2F)] :: 45%
2) HXQGTXTSDXX (not fully specified; ACP at 2; α-Me-2F-Phe at 6; Bip(OMe) at 10; Bip(Pyr) at 11) [Seq. ID. No. 34: H-(ACP)-QGT-(α-Me-2F-Phe)-TSD-Bip(OMe)-Bip(Pyr)] :: 99%
3) H[Aib]QGTFTSD[Bip(OMe)][Bip(Pyr)] [Seq. ID. No. 14: H-Aib-QGTFTSD-Bip(OMe)-Bip(Pyr)] :: 62%

Tell me cAMP release, % activity with respect to control; test compound 1 nM reported for HSQGTXTSDXX (α-Me-2F-Phe at 6; Bip(OMe) at 10; Bip(2Me) at 11) [Seq. ID. No. 21: HSQGT-(α-Me-2F-Phe)-TSD-Bip(OMe)-Bip(2Me)]
39%

Tell me cAMP release, % activity with respect to control; test compound 1 nM reported for HSQGTXTSDXX (α-Me-2F-Phe at 6; Bip(OMe) at 10; Bip(2F) at 11) [Seq. ID. No. 23: HSQGT-(α-Me-2F-Phe)-TSD-Bip(OMe)-Bip(2F)]
46%

Tell me cAMP release, % activity with respect to control; test compound 1 nM reported for HAQGT[αMePhe(2-F)]TSD[Bip(OMe)][Bip(2CF3)] [Seq. ID. No. 28: HAQGT-(α-Me-2F-Phe)-TSD-Bip(OMe)-Bip(2CF3)]
55%

Tell me cAMP release, % activity with respect to control; test compound 1 nM reported for HAQGTFTSD[Bip(OMe)][Bip(2Me)] (not fully specified (C-terminus); printed as HAQGTFTSD-Bip(OMe)-Bip(2Me)) [Seq. ID. No. 9: HAQGTFTSD-Bip(OMe)-Bip(2Me)]
38%
